molecular target: type α4β2 central nicotinic receptors (Rattus norvegicus, UniProt P09483+P12390); construct: from tissue; host or cells: rat brain membranes; experiment: Displacement of binding of [3H]-cytisine on type α4β2 nicotinic receptors of rat brain; settings: [3H]-cytisine, rat brain membranes; read-out: Ki, type α4β2 central nicotinic receptors
Sequence (P09483 31-630): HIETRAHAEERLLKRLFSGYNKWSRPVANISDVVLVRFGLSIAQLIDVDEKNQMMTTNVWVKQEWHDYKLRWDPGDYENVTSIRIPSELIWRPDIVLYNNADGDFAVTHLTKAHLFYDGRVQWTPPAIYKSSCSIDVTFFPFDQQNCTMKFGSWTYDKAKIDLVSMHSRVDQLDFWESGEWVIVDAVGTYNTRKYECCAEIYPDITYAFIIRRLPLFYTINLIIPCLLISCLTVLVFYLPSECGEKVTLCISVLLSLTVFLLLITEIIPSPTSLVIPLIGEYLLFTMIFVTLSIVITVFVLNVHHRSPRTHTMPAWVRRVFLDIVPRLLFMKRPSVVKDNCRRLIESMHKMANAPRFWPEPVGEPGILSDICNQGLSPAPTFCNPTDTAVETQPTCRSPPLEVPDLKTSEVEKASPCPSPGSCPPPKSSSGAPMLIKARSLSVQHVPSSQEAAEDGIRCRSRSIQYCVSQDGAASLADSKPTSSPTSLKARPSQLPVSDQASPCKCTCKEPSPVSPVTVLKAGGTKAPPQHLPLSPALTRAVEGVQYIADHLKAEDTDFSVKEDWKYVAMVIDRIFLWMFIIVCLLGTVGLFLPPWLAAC
Sequence (P12390 25-500): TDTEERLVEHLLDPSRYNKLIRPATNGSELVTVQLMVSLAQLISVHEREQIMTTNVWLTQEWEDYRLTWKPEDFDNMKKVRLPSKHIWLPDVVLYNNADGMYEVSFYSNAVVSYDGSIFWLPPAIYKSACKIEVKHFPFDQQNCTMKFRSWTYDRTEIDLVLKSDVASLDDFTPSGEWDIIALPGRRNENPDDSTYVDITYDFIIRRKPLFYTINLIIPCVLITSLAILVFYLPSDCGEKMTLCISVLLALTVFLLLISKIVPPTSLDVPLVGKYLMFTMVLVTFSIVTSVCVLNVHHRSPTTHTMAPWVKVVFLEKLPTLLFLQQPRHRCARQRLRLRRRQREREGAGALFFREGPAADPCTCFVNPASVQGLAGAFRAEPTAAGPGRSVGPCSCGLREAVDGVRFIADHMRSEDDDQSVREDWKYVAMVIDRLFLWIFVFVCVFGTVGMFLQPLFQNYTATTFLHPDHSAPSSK
Counter-ions that a name gives are not always drawn.
parameter measured: pKi
One number for each entry, as −log10 of the molar value.

**Query** API: value(readout=pKi, system=type α4β2 central nicotinic receptors (Rattus norvegicus, UniProt P09483+P12390)) for record CNC1(CN(C)c2ccc(Cl)nc2)CC1 [Example 10, dihydrochloride]
**Result** 7.80

Reference source for all entries: patent US7388022B2
